Listing of recorded percent response vs DMSO by entry.
experiment: compounds altering RPL19A-GFP fluorescence, TOR branch – cell-based, S. cerevisiae, multiplex flow cytometry, MLPCN, primary screen (AID 2025);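 also: median channel GFP fluorescence of the barcoded RPL19A-GFP strain; ratio of sample median GFP to plate DMSO average so 100% = DMSO; lower means less RPL19A-GFP as with rapamycin TOR inhibition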
settings: S. cerevisiae RPL19A-GFP strain, 3 h, at 10 µM, hits give low values
Screen size: about 330,000 compounds; about 980 (0.3%) were called active. Only a selection was taken, and actives are over-represented in it overall.
assayEndpoint: percent response vs DMSO

{"columns": ["compound", "resultValue"],
 "data": [
  ["COc1c(C)c2c(c(O)c1C/C=C(\\C)CCC(=O)O)C(=O)OC2", "39.1% [may fluoresce violet] (active)"],
  ["O=C1CSC(=S)N1c1ccc(Cl)c(Cl)c1", "109% (inactive)"],
  ["CCC(=O)Nc1ccc(C(=O)N2CCN(C(=O)c3ccco3)CC2)cc1", "94.2% (inactive)"],
  ["CC(=NNC(=O)c1ccc2nc[nH]c2c1)c1ccc(Br)cc1", "103% (inactive)"],
  ["Cc1ccc(C)c(OCC(=O)N2CCN(C(=O)c3ccco3)CC2)c1", "110% (inactive)"],
  ["CC(C)(C)NC(=O)C(c1ccc(Cl)cc1)N(CCO)C(=O)c1snc(C(N)=O)c1N (stereo unspecified)", "99.5% (inactive)"]
]}

* * *

experiment: compounds altering RPL19A-GFP fluorescence, TOR branch – cell-based, S. cerevisiae, multiplex flow cytometry, MLPCN, primary screen (AID 2025);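 also: median channel GFP fluorescence of the barcoded RPL19A-GFP strain; ratio of sample median GFP to plate DMSO average so 100% = DMSO; lower means less RPL19A-GFP as with rapamycin TOR inhibition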
settings: S. cerevisiae RPL19A-GFP strain, 3 h, at 10 µM
The campaign covered roughly 330,000 compounds. About 980 (0.3%) were called active.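 The calls were made as follows: active = percent response vs DMSO below 50%; inconclusive = fewer than 70 events counted for the yeast strain; inactive = the rest.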 The full list was thinned out, with actives kept by preference.
Classes used: true (active), false (inactive)

{"columns": ["compound", "qualitativeLabel"],
 "data": [
  ["Cc1ccc(NC(=O)CCOc2ccccc2)cc1S(=O)(=O)Nc1ccccc1Cl", "false"],
  ["Cc1cc(=O)oc2c(C)c(OCC(=O)NCCN3CCOCC3)ccc12", "false"],
  ["COc1ccc(N(CCC#N)S(=O)(=O)c2ccc(Cl)cc2)cc1", "false"],
  ["Cc1cccn2c(=O)c3cc(C#N)c(=NC(=O)c4cccnc4)n(CC4CCCO4)c3nc12 (stereo unspecified)", "false"],
  ["Cc1ccccc1-c1cc(C(=O)NCC2CC2)n(CC2CC(c3cccnc3)=NO2)n1 (stereo unspecified)", "false"],
  ["O=C1CC(=O)Nc2cc(S(=O)(=O)N3CCN(c4cccc(C(F)(F)F)c4)CC3)ccc2N1", "false"],
  ["OCc1nc(CO)n(Cc2ccccc2)n1", "true"],
  ["COc1ccc(CN(Cc2ccco2)S(=O)(=O)c2ccc(S(=O)(=O)N3CCCC3)cc2)cc1", "false"],
  ["Nc1nc(SCc2cccc(Br)c2)n[nH]1", "false"],
  ["CSc1nc2nc3c(c(=O)n2[nH]1)CCC3", "false"],
  ["CCOc1ccc(S(=O)(=O)N2CCC(c3ccccc3)CC2)cc1C(=O)O", "false"],
  ["CCOC(=O)c1c(CN2CCOCC2)n(-c2ccccc2)c2ccc(O)cc12", "true"],
  ["O=C(CS(=O)(=O)c1cn(Cc2cccc(F)c2)c2ccccc12)N1CCCCC1", "true"],
  ["COc1ccccc1/C=C/C(=O)OCC(=O)NC1CCCCCC1", "false"],
  ["O=C(CSc1ccccn1)Nc1nc2c(ccc3ccccc32)s1", "false"],
  ["O=C1COc2ccc(S(=O)(=O)NCCc3ccc(Cl)cc3)cc2N1", "false"]
]}
